Source listed as the RNAGym collection of RNA variant scans (doi:10.7554/elife.90254).

Listed here: items and their measured self-cleavage.
B1: LINE1-full (parent)
chain: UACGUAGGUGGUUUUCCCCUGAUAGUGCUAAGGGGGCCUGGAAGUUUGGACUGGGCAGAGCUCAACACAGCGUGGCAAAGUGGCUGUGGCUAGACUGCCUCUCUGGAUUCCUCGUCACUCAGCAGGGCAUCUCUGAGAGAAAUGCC

variants of: B1; assay: self-cleavage, relative activity (ratio to wild type); higher = more cleavage; in vitro, sequencing; the parent is a self-cleaving ribozyme
measured.property: self-cleavage

1) UACGUAGGUGGUUUUCCCCGGAUAGUGCUAAGGGGGCCUGGAAGUUUGGACUGGGCAGAGCUCAACACAGCGUGGCAAAGUGGCUGUGGCUAGACUGCCUCUCUGGAUGCCUCGUCACUCAGCAGGGCAUCUCUGAGAGAAAUGCC [U20G U109G]	0.43
2) UACGUAGGUGGUUUUCCCCUGAUAGUGCUAAGGGGGCCUGGAAGUUUGGACUGGGCAGAGCUCAACACAGCGUGGCAAAGCGGCAGUGGCUAGACUGCCUCUCUGGAUUCCUCGUCACUCAGCAGGGCAUCUCUGAGAGAAAUGCC [U81C U85A]	0.16
3) UACGUAGGUGGUUUUCCCCUGAUAGUGCCAAGGGGGCCUGGAAGUUUGGACUGGGCAGAGCUCAACACAGCGUGGCAAAGUGGCUGUGGCUAGACUGCCUCCCUGGAUUCCUCGUCACUCAGCAGGGCAUCUCUGAGAGAAAUGCC [U29C U102C]	1.1
4) UACGUAGGUGGUUUUCCCCUGAUAGUGCUAAGGGGGCCUGGAAGUUUGGACUGGGCAGCGCUCAACACAGCGUGGCAAAGUGGCUGUGGCUAGACUGCCUCUCUGGAUUCCUCGUCACUCAGCAGGGCAUCUCAGAGAGAAAUGCC [A59C U134A]	1.46
5) UACAUAGGUGGUUUUCCCCUGAUAGUGCUAAGGGGGCCUGGAAGUUUGGACUGGGCAGAGCCCAACACAGCGUGGCAAAGUGGCUGUGGCUAGACUGCCUCUCUGGAUUCCUCGUCACUCAGCAGGGCAUCUCUGAGAGAAAUGCC [G4A U62C]	0
6) UACGUAGGUGGUUUUCCCCUGAUAGUGCUAAGGGGGCCUGGAAGUUUGGACUGGGCAGAGCUCAACACAGCGUGGCAAAGUGGCUGUGGCUAGACUGCUUCUCUGGAUUCCUCGUCACUCAGCAGGGCAUCUCUGAGAGAAGUGCC [C99U A142G]	0.58
7) UACGUAGGUGGUUUUCCCCUGAUAGUGCUAAGGGGGCCUGGAAGUUUGGACUGGGCAGAGCUCAACUCAGCGUGGCAAAGUGGCUGUGGCUAGACUGCCUCUCUGGAUCCCUCGUCACUCAGCAGGGCAUCUCUGAGAGAAAUGCC [A67U U109C]	0.04
8) UACGUAGGUGGUAUUCCCCUGAUAGUGCUAAGGGGGCCUGGAAGUUUGGACUGGGCAGAGCUCAACACAGCGUGGCAAUGUGGCUGUGGCUAGACUGCCUCUCUGGAUUCCUCGUCACUCAGCAGGGCAUCUCUGAGAGAAAUGCC [U13A A79U]	0.96
9) UACGUAGGUGGUUUUCCCCUGAUAGUGCUAAGGGGUCCUGGAAGUUUGGACUGGGCAGAGCUCAACACAGCGUGGCAAGGUGGCUGUGGCUAGACUGCCUCUCUGGAUUCCUCGUCACUCAGCAGGGCAUCUCUGAGAGAAAUGCC [G36U A79G]	1.3
10) UGCGUAGGUGGUUUUCCCCUGAUAGUGCUAAGGGGGCCUGGAAGUUUGGACUGGGCAGAGCUCAACACAGCGUGGCAAAGUGGCUGUGGCUAGACUGCCUCUCUGGAUUCCUCGUCAGUCAGCAGGGCAUCUCUGAGAGAAAUGCC [A2G C118G]	1.04
11) UACGUAGGUGGUUUUCCCCUGAUAGUGCUGAGGGGGCCUGGAAGUUUGGACUGGGCAGAGCUCAACACAGCGUGGCAAAGUGGCUGUGGCUAGACUGCCUCUCUGGGUUCCUCGUCACUCAGCAGGGCAUCUCUGAGAGAAAUGCC [A30G A107G]	1.2
12) UACGUAGGUGGUUUUCCCCUGAUAGUGCUAGGGGGGCCUGGAAGUUUGGACUGGGCAGAGCUCAACACAGCGUGGCAAAGUGGCUGUGGCUAGACUGCCUCUCUGGAUUCCUCGUCACUCAGCUGGGCAUCUCUGAGAGAAAUGCC [A31G A124U]	1.3
13) CACGUAGGUGGUUUUCCCCUGAUAGUGCUAAGGGGGCCUGGAAGUUUGGACUGGGCAGAGCUCAACACAGCGUGGCAAAGUGGCUGUGGCUAGACUGUCUCUCUGGAUUCCUCGUCACUCAGCAGGGCAUCUCUGAGAGAAAUGCC [U1C C98U]	0.13
14) UACGUAGGCGGUUUUCCCCUGAUAGUGCUAAGGGGGCCUGGAAGUUUGGACUGGGCAGAGCUCAACACAGCGUGGCAAAGUGGCGGUGGCUAGACUGCCUCUCUGGAUUCCUCGUCACUCAGCAGGGCAUCUCUGAGAGAAAUGCC [U9C U85G]	0.27
15) UACGCAGGUGGUUUUCCCCUGAUAGUGCUAAGGGGGCCUGGAAGUUUGGACUGGGCAGAGCUCAACACAGCGUGGCAAAGUGGCUGUGGCUAGACCGCCUCUCUGGAUUCCUCGUCACUCAGCAGGGCAUCUCUGAGAGAAAUGCC [U5C U96C]	0.26
16) UACGAAGGUGGUUUUCCCCUGAUAGUGCUAAGGGGGCCUGGAAGUUUGGACUGGGCAGAGCUCAACACAGCGUGGCAAAGUGGCUGUGGCUAGACUGCCUCUCUGGAUUCCUCGUCACUCAGCUGGGCAUCUCUGAGAGAAAUGCC [U5A A124U]	1.2
17) UACGUAGGUGGUAUUCCCCUGAUAGUGCUAAGGGGGCCUGGAAGUUUGGACUGGGCAGAGCUCAACACGGCGUGGCAAAGUGGCUGUGGCUAGACUGCCUCUCUGGAUUCCUCGUCACUCAGCAGGGCAUCUCUGAGAGAAAUGCC [U13A A69G]	0.25
18) UACGUAGGUGGUUUUCCCCUGAUAGUGCUAAGGGGGCCUGGAAGUUUGGACUGGGCAAAGCUCAACACAGCGUGGCAAAGUGGCUGUGGCUAGACUGCCUCUCUGGAUUCCUCGUCACCCAGCAGGGCAUCUCUGAGAGAAAUGCC [G58A U119C]	0.06
19) UACGUAGGUGGUUUUCCCCUGAUAUUGCUAAGGGGGCCUGGAAGUUUGGACUGGGCAGGGCUCAACACAGCGUGGCAAAGUGGCUGUGGCUAGACUGCCUCUCUGGAUUCCUCGUCACUCAGCAGGGCAUCUCUGAGAGAAAUGCC [G25U A59G]	0.18
20) UACGUAGGUGGUUUUCCCCUGAUAGUGCUAAGGGGGCCUGGAAGUUUGGACUGGGCAGAGCUCAACACAGCGUGGCAAAGCGGCUGUGGCUAGACUGCCUCUCUGGAUUCCUCGUCACUCAGCAGGGCAUCUCUGGGAGAAAUGCC [U81C A136G]	1.12
21) UACGUAGGUGGUUUUCCCCUGAUAGUGCUAAGGGGGCCUGGAAGUUUGGACUGGGCAGAGCUCAACACAGCGUGGCAAAGUGGCUGUGGCGAGACUGCCUCUCUGGAUUCCUCGUCACUCAGCAGGGCUUCUCUGAGAGAAAUGCC [U91G A129U]	0.05
22) UACGUAGGUGGUUUUCCCCUGAUAGUGCUAAGGGGGCCUGGAAGUUUGGACUGGGCAGAGCUCAACACAGCGUGGCAAAGUGGCUGUGGCUAGACUGCCUCUCUGGAUUCCUCGACACUCAGCAGGGCUUCUCUGAGAGAAAUGCC [U115A A129U]	1.04
23) UACGUAGGUGAUUUUCCCCUGAUAGUGCUAAGGGGGCCUGGAAGUUUGGACUGGGCAGAGCUCAGCACAGCGUGGCAAAGUGGCUGUGGCUAGACUGCCUCUCUGGAUUCCUCGUCACUCAGCAGGGCAUCUCUGAGAGAAAUGCC [G11A A65G]	0.02
24) UACGUAGGUGGUUUUCCCCUGAUAGUGCUAAGGGGGCCUGGAAGUUUGGACUGUGCAGAGCUCAACACAGCGUGGCAAAGUGGCUGUGGCUGGACUGCCUCUCUGGAUUCCUCGUCACUCAGCAGGGCAUCUCUGAGAGAAAUGCC [G54U A92G]	0.08
25) UACGUAGGUGGUCUUCCCCUGAUAGUGCUAAGGGAGCCUGGAAGUUUGGACUGGGCAGAGCUCAACACAGCGUGGCAAAGUGGCUGUGGCUAGACUGCCUCUCUGGAUUCCUCGUCACUCAGCAGGGCAUCUCUGAGAGAAAUGCC [U13C G35A]	1.13
26) AACGUAGGUGGUUUUCCCCUGAUAGUGCUAAGGGGGCCUGGAAGUUUGGACUGGGCAGAGCUCAACACAGCGUGGCAAAGUGGCUGUGGCUAGACUGCCUCUCUGGAUUCCUCGUCGCUCAGCAGGGCAUCUCUGAGAGAAAUGCC [U1A A117G]	1.37
27) UACGUAGGUGGUUUUCCCCUGAUAGUGCUAAGGGGGCCUGUAAGUUUGGACUGGGCAGAGCUCAACACAGCGUGGCAAAGUGGCUGUGGCUAGACUGUCUCUCUGGAUUCCUCGUCACUCAGCAGGGCAUCUCUGAGAGAAAUGCC [G41U C98U]	0.12
28) UACGUAGGUGGUUUUCCCCUGAUAGUGCUAAGGGGGCAUGGAAGUUUGGACUGGGCAGAGCUCAACACAGCGUGGCAAAGUGGCUGUGGCUAGACUGCCUCUCUGGAUACCUCGUCACUCAGCAGGGCAUCUCUGAGAGAAAUGCC [C38A U109A]	1.36
29) UACGUAGGUGGUUUUCCCCUGAUAGUGCUAAGGGGGCCUGGAAGUUUGGGCUGGGCAGAGCUCAACACAGCGUGGCAAAGUGGCUGUGGCUAGACUGCCUCUCUGGAUUCCCCGUCACUCAGCAGGGCAUCUCUGAGAGAAAUGCC [A50G U112C]	0.73
30) UACGUAGGUGGUUUUCCCCUGAUAGUGCUAAGGGGGCCUGGAAGUUUGGACUGGGCAGAGCUUAACACAGCGUGGCAAAGUGGCUGUGGCUAGACUGCCUCUCUGGAUUCCUCGUCACUCAGCAGGGCAUCUCUGAGAGGAAUGCC [C63U A140G]	0.25
31) UACGUAGGUGGUUUUCCCCUGAUAGUGCUAAGGGGGCCUGGAAGUUUGGACUGGGCAGAGCUCAACACAGCGUGGCAAUGUGGCUGUGGCUAGACUGCCUCUCUGGAUUCCUCGUCACUCAGCAGGGCAUCUCUGAGAGAAGUGCC [A79U A142G]	2.33
32) UACGUAGGUGGUUUUCCCCUGAUAGUGCGAAGGGGGCCUGGAAGUUUGGACUGGGCAGAGCUCAACACAGCGUGGCAAAGUGGCUGUGGCUAGACUGCCUCUCUGGAUUCCUCGUCACUCAGCAGGGCAUCUCUGAGAGAUAUGCC [U29G A141U]	0.35
33) UACGUAGGUGGUUUUCCCCUGAUAGUGCUAAGGGGGCCUGGAAGUUGGGACUGGGCAGAGCUCAACACAGCGUGGCAAAGUGGCUGUGGCUAGACCGCCUCUCUGGAUUCCUCGUCACUCAGCAGGGCAUCUCUGAGAGAAAUGCC [U47G U96C]	0.21
34) UACGUAGGUGGUUUUCCCCUGAUAGUGCUAAGGGGGCCUGGAAGUCUGGACUGGGCAGAGCUCAACACAGCGUGGCAAAGUGGCUGCGGCUAGACUGCCUCUCUGGAUUCCUCGUCACUCAGCAGGGCAUCUCUGAGAGAAAUGCC [U46C U87C]	0.43
35) UACGUAGGUGGUUUUCCCCUGAUAGUGCUAAGGGGGCCUGGAAGUUUGGACUGGGCAGAGCUCAACACAGCGCGGCAAAGUGGCUGUGGCUAGACUGCCUCUCUGGAUUCCUCGUCACUCAGCAGGGCAUCUCUGUGAGAAAUGCC [U73C A136U]	1.76
36) UACGUAGGUGGUUUUCCCCUGAUAGUGCUAAGGGGGCCUGGAAGUUUGGACUGGGCAGAGCUCAACACAGCGUGGCAAUGUGGCUGUGGCUAGACUGCCUCUCUGGAUUACUCGUCACUCAGCAGGGCAUCUCUGAGAGAAAUGCC [A79U C110A]	1.64
37) UACGUAGGUGGUUUUCCCCUGAUAGUGCUAAGGGGGCCUGGAGGUUUGGACCGGGCAGAGCUCAACACAGCGUGGCAAAGUGGCUGUGGCUAGACUGCCUCUCUGGAUUCCUCGUCACUCAGCAGGGCAUCUCUGAGAGAAAUGCC [A43G U52C]	1.13
38) UACGUAGGUGGUUUUCCCCUAAUAGUGCUAAGGGGGCCUGGAAGUUUGGACUGGGCAGAGCUCAACACAGCGUGGCAAAGUGGCUGUGGCUAGACUGCCUCUCUGGAUUCCUCGUCACUCAGCAGGGCAUCCCUGAGAGAAAUGCC [G21A U132C]	1.63
39) UACGUAGGUGGUUUUCCCCUGAUAGUGCUAAGGGGGCCUGGAAGUAUGGACUGGGCAGAGCCCAACACAGCGUGGCAAAGUGGCUGUGGCUAGACUGCCUCUCUGGAUUCCUCGUCACUCAGCAGGGCAUCUCUGAGAGAAAUGCC [U46A U62C]	0.05
40) UACGUAGGUGGUUUUCCCCUGAUAGUGCUAAGGGGGCCUGGAAGUUUGGACUGGACAGAGCUCAACACAGCGUGGCAAAGAGGCUGUGGCUAGACUGCCUCUCUGGAUUCCUCGUCACUCAGCAGGGCAUCUCUGAGAGAAAUGCC [G55A U81A]	0.08
41) UACGUAGGUGGUUUUCCCCUGAUAGUGCUAAGGGGGCCUGUAAGUUUGGACUGGGCAGAGCUCAACACAGCGUGGCAAAGUGGCUGUGGCUAGACUGCCUCUCUGGAUUCCUCGUCACUCAGCAGGACAUCUCUGAGAGAAAUGCC [G41U G127A]	0.69
